systemTested: Prostaglandin G/H synthase 2 (Homo sapiens, UniProt P35354);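 further: recombinant enzyme produced in baculovirus-infected Sf21 cells, arachidonic acid substrate, PGE2 output quantified by LC-MS after 45 min, compounds preincubated 10 min beforehand, lower PGE2 means inhibition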
Sequence (P35354 whole entry): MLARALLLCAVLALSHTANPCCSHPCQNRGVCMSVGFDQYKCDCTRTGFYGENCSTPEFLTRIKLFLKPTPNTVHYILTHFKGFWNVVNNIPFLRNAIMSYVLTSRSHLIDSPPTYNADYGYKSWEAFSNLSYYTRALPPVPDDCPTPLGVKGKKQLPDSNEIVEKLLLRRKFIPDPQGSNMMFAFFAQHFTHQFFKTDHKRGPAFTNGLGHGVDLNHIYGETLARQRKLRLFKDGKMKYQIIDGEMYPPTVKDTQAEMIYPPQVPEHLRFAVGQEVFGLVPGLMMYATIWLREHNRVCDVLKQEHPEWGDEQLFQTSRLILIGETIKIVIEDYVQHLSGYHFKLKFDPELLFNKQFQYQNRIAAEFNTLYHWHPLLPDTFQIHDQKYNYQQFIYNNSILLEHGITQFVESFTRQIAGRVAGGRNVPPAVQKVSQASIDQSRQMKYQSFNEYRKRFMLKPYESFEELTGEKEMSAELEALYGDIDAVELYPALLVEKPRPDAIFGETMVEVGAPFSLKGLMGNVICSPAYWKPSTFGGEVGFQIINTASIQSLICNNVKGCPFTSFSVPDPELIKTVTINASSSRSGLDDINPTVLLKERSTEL
assayNotes: biochemical
Assay type: cell-based, Sf21
runParameters: sf21
Description: Inhibition of human recombinant COX2 expressed in baculovirus infected sf21 cells assessed as decrease in PGE2 formation using arachidonic acid as substrate preincubated for 10 mins followed by substrate addition measured after 45 mins by LC-MS analysis
endpointName: IC50

These solved cases illustrate the format of a correct answer.
- CC1(C)CC[C@]2(C(=O)O)CC[C@]3(C)C(=CC[C@@H]4[C@@]5(C)CC[C@H](O)[C@@](C)(CO)[C@@H]5CC[C@]43C)[C@@H]2C1 [HEDERAGENIN]: Not Active
- CC1(C)CC[C@]2(CO)CC[C@]3(C)C(=CC[C@@H]4[C@@]5(C)CC[C@H](O)C(C)(C)[C@@H]5CC[C@]43C)[C@@H]2C1 [ERYTHRODIOL]: Not Active
- C[C@H]1[C@H](C)CC[C@]2(CO)CC[C@]3(C)C(=CC[C@@H]4[C@@]5(C)CC[C@H](O)C(C)(C)[C@@H]5CC[C@]43C)[C@H]12 [UVAOL]: Not Active
- CC1(C)CC[C@]2(C(=O)O)CC[C@]3(C)C(=CC[C@@H]4[C@@]5(C)CC[C@H](O)[C@@](C)(C(=O)O)[C@@H]5CC[C@]43C)[C@@H]2C1: Not Active
- CC1(C)CC[C@]2(C)CC[C@]3(C)C(=CC[C@@H]4[C@@]5(C)CC[C@H](O)C(C)(C)[C@@H]5CC[C@]43C)[C@@H]2C1 [beta-AMYRIN]: Not Active

Now consider a different compound.
Look up IC50 for this compound: CC1(C)CC[C@]2(C)CC[C@]3(C)C(=CC[C@@H]4[C@@]5(C)CCC(=O)C(C)(C)[C@@H]5CC[C@]43C)[C@@H]2C1
Not Active

###

systemTested: Polyunsaturated fatty acid 5-lipoxygenase (Homo sapiens) (UniProt P09917)
Sequence (whole entry): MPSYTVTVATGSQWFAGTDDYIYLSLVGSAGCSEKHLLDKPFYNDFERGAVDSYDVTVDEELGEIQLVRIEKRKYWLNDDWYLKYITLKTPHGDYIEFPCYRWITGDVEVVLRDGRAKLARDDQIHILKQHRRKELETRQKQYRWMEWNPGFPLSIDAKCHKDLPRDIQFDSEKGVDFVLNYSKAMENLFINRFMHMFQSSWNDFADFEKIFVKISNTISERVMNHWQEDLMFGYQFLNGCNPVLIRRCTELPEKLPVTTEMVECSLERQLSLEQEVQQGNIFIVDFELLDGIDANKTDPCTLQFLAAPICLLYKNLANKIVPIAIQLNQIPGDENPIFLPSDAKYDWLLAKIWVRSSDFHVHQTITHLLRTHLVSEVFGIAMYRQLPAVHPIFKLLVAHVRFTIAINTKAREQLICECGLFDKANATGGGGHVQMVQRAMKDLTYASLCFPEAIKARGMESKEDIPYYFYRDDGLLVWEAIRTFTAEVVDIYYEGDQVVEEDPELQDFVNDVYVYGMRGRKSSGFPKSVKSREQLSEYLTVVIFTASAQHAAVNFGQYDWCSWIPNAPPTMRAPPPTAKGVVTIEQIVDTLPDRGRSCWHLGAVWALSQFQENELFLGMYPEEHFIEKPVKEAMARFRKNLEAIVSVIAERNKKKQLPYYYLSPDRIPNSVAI
assayNotes: Inhibition of human recombinant 5-LOX expressed in insect cells assessed residual activity using arachidonic acid at 42 uM as substrate preincubated for 5 mins followed by substrate addition measured after 20 mins in dark by ferric ion oxidation-xylenol orange method relative to control
Each record is given true if its reported Activity is strictly below 60%. Records at or above 60% are given false.

* CC1(C)CC[C@]2(C)CC[C@]3(C)C(=CC[C@@H]4[C@@]5(C)CC[C@H](O)C(C)(C)[C@@H]5CC[C@]43C)[C@@H]2C1 | false

Does the reported Activity of CC1(C)CC[C@]2(C(=O)O)CC[C@]3(C)C(=CC[C@@H]4[C@@]5(C)C[C@@H](O)[C@H](O)C(C)(C)[C@@H]5CC[C@]43C)[C@@H]2C1 stay below 60%?
false

Does the reported Activity of CC1(C)CC[C@]2(C(=O)O)CC[C@]3(C)C(=CC[C@@H]4[C@@]5(C)C[C@H](O)[C@H](O)[C@@](C)(C(=O)O)[C@@H]5CC[C@]43C)[C@@H]2C1 stay below 60%?
true

Does the reported Activity of C[C@H]1[C@H](C)CC[C@]2(C(=O)O)CC[C@]3(C)C(=CC[C@@H]4[C@@]5(C)CC[C@H](O)C(C)(C)[C@@H]5CC[C@]43C)[C@H]12 stay below 60%?
false

###

Parameter: IC50. Scope: all listed entries.
systemTested: Polyunsaturated fatty acid 5-lipoxygenase (Homo sapiens)
assayNotes: Inhibition of human recombinant 5-LOX expressed in insect cells assessed as decrease in production of 5-HPETE and 5-HETE using arachidonic acid as substrate preincubated for 5 mins followed by substrate addition measured after 20 mins in dark by ferric ion oxidation-xylenol orange method
runParameters: read-out: IC50

These solved cases illustrate the format of a correct answer.
- CC(=O)O[C@@H]1CC[C@@]2(C)[C@@H](CC[C@]3(C)[C@@H]2C(=O)C=C2[C@@H]4[C@@H](C)[C@H](C)CC[C@]4(C)CC[C@]23C)[C@@]1(C)C(=O)O [AKBA]: 35.6 µM
- C[C@H]1[C@H](C)CC[C@]2(C(=O)O)CC[C@]3(C)C(=CC[C@@H]4[C@@]5(C)CC[C@H](O)C(C)(C)[C@@H]5CC[C@]43C)[C@H]12 [URSOLIC ACID]: > 40 µM
- C[C@H]1[C@H](C)CC[C@]2(C)CC[C@]3(C)C(=CC[C@@H]4[C@@]5(C)CC[C@@H](O)[C@](C)(C(=O)O)[C@@H]5CC[C@]43C)[C@H]12 [BOSWELLIC ACID]: > 40 µM
- CC1(C)CC[C@]2(C(=O)O)CC[C@]3(C)C(=CC[C@@H]4[C@@]5(C)C[C@@H](O)[C@H](O)C(C)(C)[C@@H]5CC[C@]43C)[C@@H]2C1 [MASLINIC ACID]: > 40 µM

Now consider a different compound.
Look up IC50 for this compound: CC1(C)CC[C@]2(C(=O)O)CC[C@]3(C)C(=CC[C@@H]4[C@@]5(C)C[C@H](O)[C@H](O)[C@@](C)(C(=O)O)[C@@H]5CC[C@]43C)[C@@H]2C1
30.4 µM

###

Parameter: Activity. Scope: all listed entries.
systemTested: UniProt:P09917
Sequence (whole entry): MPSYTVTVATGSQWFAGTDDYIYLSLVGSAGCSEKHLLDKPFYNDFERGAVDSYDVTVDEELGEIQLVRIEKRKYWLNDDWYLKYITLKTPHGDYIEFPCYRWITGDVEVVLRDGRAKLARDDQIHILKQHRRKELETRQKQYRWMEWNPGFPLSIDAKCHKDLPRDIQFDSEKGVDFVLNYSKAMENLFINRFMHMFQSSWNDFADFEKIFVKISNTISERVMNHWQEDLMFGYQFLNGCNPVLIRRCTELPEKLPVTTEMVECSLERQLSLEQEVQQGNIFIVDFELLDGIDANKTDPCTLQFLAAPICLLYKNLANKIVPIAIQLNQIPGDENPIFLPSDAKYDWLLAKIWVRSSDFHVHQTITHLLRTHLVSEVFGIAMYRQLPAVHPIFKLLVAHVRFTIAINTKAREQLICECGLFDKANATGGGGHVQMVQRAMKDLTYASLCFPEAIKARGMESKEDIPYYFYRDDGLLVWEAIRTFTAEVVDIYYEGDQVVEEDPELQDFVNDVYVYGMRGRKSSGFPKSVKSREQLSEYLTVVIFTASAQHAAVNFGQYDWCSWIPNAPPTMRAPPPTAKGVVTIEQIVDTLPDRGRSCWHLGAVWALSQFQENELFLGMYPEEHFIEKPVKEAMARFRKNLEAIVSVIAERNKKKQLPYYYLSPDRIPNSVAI
assayNotes: Inhibition of human recombinant 5-LOX expressed in insect cells assessed residual activity using arachidonic acid at 42 uM as substrate preincubated for 5 mins followed by substrate addition measured after 20 mins in dark by ferric ion oxidation-xylenol orange method relative to control
Could you give me the number in %? Just the number is fine.

- C[C@H]1[C@H](C)CC[C@]2(C)CC[C@]3(C)C(=CC(=O)[C@@H]4[C@@]5(C)CC[C@@H](O)[C@](C)(C(=O)O)[C@@H]5CC[C@]43C)[C@H]12: 31.9

Could you share what Activity was measured for CC1(C)CC[C@]2(C)CC[C@]3(C)C(=CC[C@@H]4[C@@]5(C)CC[C@H](O)[C@](C)(CO)[C@@H]5CC[C@]43C)[C@@H]2C1 , tested on UniProt:P09917?
29.8

Could you share what Activity was measured for CC1(C)CC[C@]2(C(=O)O)CC[C@]3(C)C(=CC[C@@H]4[C@@]5(C)C[C@H](O)[C@H](O)[C@@](C)(CO)[C@@H]5CC[C@]43C)[C@@H]2C1 , tested on UniProt:P09917?
71.9

###

systemTested: Polyunsaturated fatty acid 5-lipoxygenase (Homo sapiens) (UniProt P09917)
Sequence (whole entry): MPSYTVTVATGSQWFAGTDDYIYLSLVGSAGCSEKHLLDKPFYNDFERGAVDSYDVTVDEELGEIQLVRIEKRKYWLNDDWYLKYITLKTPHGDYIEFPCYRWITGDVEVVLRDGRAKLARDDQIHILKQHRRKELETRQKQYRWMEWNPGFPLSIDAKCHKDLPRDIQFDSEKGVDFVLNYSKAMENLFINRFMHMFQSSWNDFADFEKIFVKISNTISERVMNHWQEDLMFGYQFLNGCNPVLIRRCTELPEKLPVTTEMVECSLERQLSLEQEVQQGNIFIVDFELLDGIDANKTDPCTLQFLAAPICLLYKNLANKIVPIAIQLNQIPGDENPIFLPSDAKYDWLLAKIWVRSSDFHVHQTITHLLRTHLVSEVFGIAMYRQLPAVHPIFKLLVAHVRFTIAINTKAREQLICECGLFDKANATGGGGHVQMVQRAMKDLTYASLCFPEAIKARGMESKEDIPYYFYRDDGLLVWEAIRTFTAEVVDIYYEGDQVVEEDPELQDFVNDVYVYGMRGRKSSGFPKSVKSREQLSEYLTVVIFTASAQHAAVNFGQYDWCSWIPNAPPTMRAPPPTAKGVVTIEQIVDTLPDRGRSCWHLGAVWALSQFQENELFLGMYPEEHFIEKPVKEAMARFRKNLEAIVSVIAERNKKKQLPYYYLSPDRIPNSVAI
assayNotes: Inhibition of human recombinant 5-LOX expressed in insect cells assessed residual activity using arachidonic acid at 42 uM as substrate preincubated for 5 mins followed by substrate addition measured after 20 mins in dark by ferric ion oxidation-xylenol orange method relative to control
endpointName: Activity (%)
Could you give me the number in %? Just the number is fine.

These solved cases illustrate the format of a correct answer.
• CC1(C)CC[C@]2(C)CC[C@]3(C)C(=CC(=O)[C@@H]4[C@@]5(C)CC[C@H](O)C(C)(C)[C@@H]5CC[C@]43C)[C@@H]2C1 = 70.4
• C[C@H]1[C@H](C)CC[C@]2(C)CC[C@]3(C)C(=CC[C@@H]4[C@@]5(C)CC[C@H](O)C(C)(C)[C@@H]5CC[C@]43C)[C@H]12 = 55.5
• C[C@H]1[C@H](C)CC[C@]2(C(=O)O)CC[C@]3(C)C(=CC[C@@H]4[C@@]5(C)C[C@@H](O)[C@H](O)[C@@](C)(CO)[C@@H]5CC[C@]43C)[C@H]12 [ASIATIC ACID] = 61.9

Look up Activity for this compound: C[C@H]1[C@H](C)CC[C@]2(C(=O)O)CC[C@]3(C)C(=CC[C@@H]4[C@@]5(C)C[C@@H](O)[C@H](O)C(C)(C)[C@@H]5CC[C@]43C)[C@H]12 [COROSOLIC ACID]
66.7

Look up Activity for this compound: CC(=O)O[C@@H]1CC[C@@]2(C)[C@@H](CC[C@]3(C)[C@@H]2CC=C2[C@@H]4CC(C)(C)CC[C@]4(C)CC[C@]23C)[C@@]1(C)C(=O)O
93.1
